Target: UniProt:Q13887
measurementKind: Kd

Quote UniProt:Q13887 Kd for entry CC1(C)CCC(C)(C)c2cc(NC(=O)c3ccc(C(=O)O)cc3)ccc21 [Am80] .
> 30 µM

====

System: PC-3-KQ cells
Experiment: 3D spheroid invasion assay and screening of FDA-approved drugs
Assay type: cell-based, human
Conditions: 0.01 μM (first column so headed); third screening of 25 hit compounds (Table S2); compared to vehicle control
Invasion rates (%) of each drug’s multiple concentrations (μM) listing for selected compounds.

Completed entries (count: 3):
CNC[C@H](O)[C@@H](O)[C@H](O)[C@H](O)CO.Nc1nc(-n2cc(C(=O)O)c(=O)c3cc(F)c(N4CC(O)C4)c(Cl)c32)c(F)cc1F | 93.02%
C[C@H]1c2cccc(O)c2C(O)=C2C(=O)[C@]3(O)C(O)=C(C(N)=O)C(=O)[C@@H](N(C)C)[C@@H]3[C@@H](O)[C@@H]21 [Doxycycline (hyclate)] | 101.94%
CC(=O)OC[C@H]1O[C@@H]([S-])[C@H](OC(C)=O)[C@@H](OC(C)=O)[C@@H]1OC(C)=O.CCP(CC)CC.[Au+] | 93.68%

Write down Invasion rates (%) of each drug’s multiple concentrations (μM) measured for item Cc1ncc([N+](=O)[O-])n1CC(O)CN1CCOCC1 (single isomer, unassigned) [Morinidazole (R enantiomer)]
95.71%

Write down Invasion rates (%) of each drug’s multiple concentrations (μM) measured for item CN(C)c1cc(NC(=O)CNC(C)(C)C)c(O)c2c1C[C@H]1C[C@H]3[C@H](N(C)C)C(=O)C(C(N)=O)=C(O)[C@@]3(O)C(=O)C1=C2O.CS(=O)(=O)O.CS(=O)(=O)O.CS(=O)(=O)O.CS(=O)(=O)O [Tigecycline (tetramesylate)]
89.06%

Write down Invasion rates (%) of each drug’s multiple concentrations (μM) measured for item CN1C[C@@H]2C[C@H]1CN2c1cc2c(cc1F)c(=O)c(C(=O)O)cn2C1CC1.CS(=O)(=O)O [Danofloxacin (mesylate)]
93.23%

====

Test system: PC-3-KQ cells
Experiment: 3D spheroid invasion assay and screening of FDA-approved drugs
Format: cell-based, human
Details: Homo sapiens, 72 h, 0.1 μM; third screening of 25 hit compounds (Table S2); compared to vehicle control; read-out: Invasion rates (%) of each drug’s multiple concentrations
Counter-ions that a name gives are not always drawn.
activity at 0.1 µM listing for selected molecules.
Form entry: value (%) — number only.

Completed entries (count: 2):
CCS(=O)(=O)CCn1c([N+](=O)[O-])cnc1C | 90.2
CC1CS(=O)(=O)CCN1/N=C/c1ccc([N+](=O)[O-])o1 (stereo not drawn) | 93.5

Write down activity at 0.1 µM measured for item CC(C)C[C@H](NC(=O)CNC(=O)c1cc(Cl)ccc1Cl)B1OC(=O)C(CC(=O)O)(CC(=O)O)O1 [Ixazomib citrate]
91.4

====

Tested on: PC-3-KQ cells
Experiment: 3D spheroid invasion assay and screening of FDA-approved drugs
Format: cell-based, human
Conditions: Homo sapiens, 72 h, 0.1 μM; third screening of 25 hit compounds (Table S2); compared to vehicle control; read-out: Invasion rates (%) of each drug’s multiple concentrations
Please enter 1 where activity at 0.1 µM is greater than or equal to 40%, and 0 where it is lower.

COc1cc2ncnc(Nc3ccc(F)c(Cl)c3)c2cc1NC(=O)/C=C/CN1CCCCC1 | 1
C=C[C@]1(C)C[C@@H](OC(=O)CS[C@@H]2C[C@H]3CC[C@@H](C2)N3C)[C@]2(C)[C@H](C)CC[C@]3(CCC(=O)[C@H]32)[C@@H](C)[C@@H]1O | 0
O=C1CN(/N=C/C=C/c2ccc([N+](=O)[O-])o2)C(=O)N1 | 0
CSCC1CN(/N=C/c2ccc([N+](=O)[O-])o2)C(=O)O1 (centres unmarked) | 0
CC(=O)Oc1ccccc1C(=O)Nc1ncc([N+](=O)[O-])s1 [Nitazoxanide] | 1

Check the entry CC(C)C[C@H](NC(=O)[C@H](Cc1ccccc1)NC(=O)c1cnccn1)B(O)O : does activity at 0.1 µM equal or exceed 40%?
1

Check the entry CC(C)C[C@H](NC(=O)CNC(=O)c1cc(Cl)ccc1Cl)B(O)O : does activity at 0.1 µM equal or exceed 40%?
1

Check the entry Cn1c([N+](=O)[O-])cnc1COC(N)=O : does activity at 0.1 µM equal or exceed 40%?
0

====

System: PC-3 (KLF5 null) cells expressing KLF5^K369Q
Test: CCK-8 cell viability assay
Assay type: cell-based, human
Conditions: Homo sapiens; PC-3 (KLF5 null), KLF5^K369Q; CCK-8, 48 h
pIC50 listing for selected molecules.
Recall that pIC50 is obtained by taking minus log10 of the concentration measured in molar.

Write down pIC50 measured for item O=C1CN(/N=C/C=C/c2ccc([N+](=O)[O-])o2)C(=O)N1
4.54

Write down pIC50 measured for item CC(=O)Oc1ccccc1C(=O)Nc1ncc([N+](=O)[O-])s1 [Nitazoxanide]
5.27

Write down pIC50 measured for item CSCC1CN(/N=C/c2ccc([N+](=O)[O-])o2)C(=O)O1 (stereo not shown)
4.73

Write down pIC50 measured for item C=C[C@]1(C)C[C@@H](OC(=O)CS[C@@H]2C[C@H]3CC[C@@H](C2)N3C)[C@]2(C)[C@H](C)CC[C@]3(CCC(=O)[C@H]32)[C@@H](C)[C@@H]1O
4.90

====

activity at 10 µM listing for selected compounds.
Tested on: PC-3-KQ cells
Test: 3D spheroid invasion assay and screening of FDA-approved drugs
Format: cell-based, human
Conditions: Homo sapiens, 72 h, 10 μM; third screening of 25 hit compounds (Table S2); compared to vehicle control; read-out: Invasion rates (%) of each drug’s multiple concentrations
Form entry: value (%) — number only.

Completed entries (count: 4):
CC(=O)Oc1ccccc1C(=O)Nc1ncc([N+](=O)[O-])s1 [Nitazoxanide] | 1.24
CC(C)C[C@H](NC(=O)CNC(=O)c1cc(Cl)ccc1Cl)B(O)O [Ixazomib] | 0.3
COc1cc2ncnc(Nc3ccc(F)c(Cl)c3)c2cc1NC(=O)/C=C/CN1CCCCC1 [Dacomitinib] | 53.9
O=C1CN(/N=C/C=C/c2ccc([N+](=O)[O-])o2)C(=O)N1 [Furagin] | 1.29

Write down activity at 10 µM measured for item CC1CS(=O)(=O)CCN1/N=C/c1ccc([N+](=O)[O-])o1 (centres unmarked) [Nifurtimox]
0.53

====

System: PC-3-KQ cells
Experiment: 3D spheroid invasion assay and screening of FDA-approved drugs
Type: cell-based, human
Settings: Homo sapiens, 72 h, 0.01 μM (first column so headed); third screening of 25 hit compounds (Table S2); compared to vehicle control; read-out: Invasion rates (%) of each drug’s multiple concentrations
Counter-ions that a name gives are not always drawn.
measurementKind: activity at 0.01 µM
Field note: include the unit after the figure.

Completed entries (count: 4):
Cn1c([N+](=O)[O-])cnc1COC(N)=O [Ronidazole] | 81.8%
CC(C)C[C@H](NC(=O)[C@H](Cc1ccccc1)NC(=O)c1cnccn1)B(O)O [Bortezomib] | 84.3%
CCS(=O)(=O)CCn1c([N+](=O)[O-])cnc1C [Tinidazole] | 89.2%
COc1cc2ncnc(Nc3ccc(F)c(Cl)c3)c2cc1NC(=O)/C=C/CN1CCCCC1 [Dacomitinib] | 98.9%

Write down activity at 0.01 µM measured for item C=C[C@]1(C)C[C@@H](OC(=O)CS[C@@H]2C[C@H]3CC[C@@H](C2)N3C)[C@]2(C)[C@H](C)CC[C@]3(CCC(=O)[C@H]32)[C@@H](C)[C@@H]1O [Retapamulin]
74.4%

Write down activity at 0.01 µM measured for item CC(C)C[C@H](NC(=O)CNC(=O)c1cc(Cl)ccc1Cl)B1OC(=O)C(CC(=O)O)(CC(=O)O)O1 [Ixazomib citrate]
100%

Write down activity at 0.01 µM measured for item CC(=O)Oc1ccccc1C(=O)Nc1ncc([N+](=O)[O-])s1 [Nitazoxanide]
94.1%

====

Molecular target: KLF5^K369Q protein (Homo sapiens, UniProt Q13887, K369Q)
Sequence (Q13887 whole entry K369Q): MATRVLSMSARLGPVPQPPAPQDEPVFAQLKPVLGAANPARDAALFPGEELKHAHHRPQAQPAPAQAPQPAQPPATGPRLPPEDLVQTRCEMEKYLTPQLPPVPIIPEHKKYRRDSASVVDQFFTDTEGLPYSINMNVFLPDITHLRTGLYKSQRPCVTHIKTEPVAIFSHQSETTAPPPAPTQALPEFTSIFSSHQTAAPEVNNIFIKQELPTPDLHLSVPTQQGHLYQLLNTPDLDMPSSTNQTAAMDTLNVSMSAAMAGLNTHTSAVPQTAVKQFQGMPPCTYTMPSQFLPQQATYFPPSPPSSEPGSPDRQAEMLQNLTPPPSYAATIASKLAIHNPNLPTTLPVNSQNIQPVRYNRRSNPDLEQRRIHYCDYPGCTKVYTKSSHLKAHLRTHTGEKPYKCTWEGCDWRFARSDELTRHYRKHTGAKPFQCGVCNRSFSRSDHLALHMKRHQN
Experiment: Fluorescence titration (quenching) of KLF5 protein
Details: read-out: binding constant Kd
measurementKind: pKd
Recall that pKd is obtained by taking minus log10 of the concentration measured in molar.

Write down pKd measured for item CC(=O)Oc1ccccc1C(=O)Nc1ncc([N+](=O)[O-])s1 [Nitazoxanide]
5.27

====

Tested on: PC-3-KQ cells
Assay: 3D spheroid invasion assay and screening of FDA-approved drugs
Format: cell-based, human
Settings: Homo sapiens, 72 h, 10 μM; third screening of 25 hit compounds (Table S2); compared to vehicle control; read-out: Invasion rates (%) of each drug’s multiple concentrations
Counter-ions that a name gives are not always drawn.
Criterion: activity at 10 µM strictly under 3%. Met: 1. Not met: 0.

Please review the entries below; each comes with its answer.
CC(C)C[C@H](NC(=O)CNC(=O)c1cc(Cl)ccc1Cl)B1OC(=O)C(CC(=O)O)(CC(=O)O)O1 [Ixazomib citrate] | 1
Cn1c([N+](=O)[O-])cnc1COC(N)=O | 1
CC(C)C[C@H](NC(=O)[C@H](Cc1ccccc1)NC(=O)c1cnccn1)B(O)O | 0
C=C[C@]1(C)C[C@@H](OC(=O)CS[C@@H]2C[C@H]3CC[C@@H](C2)N3C)[C@]2(C)[C@H](C)CC[C@]3(CCC(=O)[C@H]32)[C@@H](C)[C@@H]1O | 1
CSCC1CN(/N=C/c2ccc([N+](=O)[O-])o2)C(=O)O1 (stereo not drawn) | 1

Then this molecule:
Quick check: does CCS(=O)(=O)CCn1c([N+](=O)[O-])cnc1C have activity at 10 µM under 3%?
1
